# TARGET: T1, binding between SEMG2 and CD27 (Homo sapiens, UniProt Q02383)
# T1 sequence (Q02383 24-582): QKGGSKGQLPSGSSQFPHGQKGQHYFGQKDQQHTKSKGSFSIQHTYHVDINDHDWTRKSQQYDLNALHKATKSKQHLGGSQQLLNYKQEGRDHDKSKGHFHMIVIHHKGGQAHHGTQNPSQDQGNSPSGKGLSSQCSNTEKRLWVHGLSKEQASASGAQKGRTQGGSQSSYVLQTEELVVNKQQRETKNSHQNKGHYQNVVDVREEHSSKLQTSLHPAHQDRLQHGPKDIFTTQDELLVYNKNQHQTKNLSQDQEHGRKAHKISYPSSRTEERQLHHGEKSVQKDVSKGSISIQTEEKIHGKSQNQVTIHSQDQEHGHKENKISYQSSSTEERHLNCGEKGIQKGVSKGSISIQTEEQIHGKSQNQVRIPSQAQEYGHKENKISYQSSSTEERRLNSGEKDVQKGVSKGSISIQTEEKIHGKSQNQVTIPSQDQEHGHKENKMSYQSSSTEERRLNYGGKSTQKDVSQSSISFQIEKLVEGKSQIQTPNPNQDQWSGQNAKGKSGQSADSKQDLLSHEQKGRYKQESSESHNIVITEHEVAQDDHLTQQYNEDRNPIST
# METHOD DESCRIPTION: Antibody blocking ELISA of SEMG2 binding to CD27-Fc
# MEASUREMENT CONDITIONS: antibody 10 μg/mL
MEASUREMENT KIND: effect on the binding between SEMG2 and CD27

H88-96: fully human antibody from phage library against SEMG2(497-509), VH SEQ ID NO:54, VL SEQ ID NO:57 (antibody, V domains shown, UNSURE (1)..(124) VH; UNSURE (1)..(107) VL) VH: QVQLLESGGGLVQPGGSLRLSCSASGFTFSSYAMHWVRQAPGKGLEYVSAISSNGGSTYYADSVKGRFTISRDNSKNTLYLQMSSLRAEDTAVYYCVIEGGSTTGTTSGAFDIWGQGTMVTVSS VL: DIQMIQSPPSVSASVGDTVTIACRANQGIDSWLAWYQQKPGRAPKLLIYSASRLQSGVPSRFSGGGSGTDFALTISNLQPEDFATYYCQQALSLPITFGQGTRLEIK; inhibited the binding
H88-93: fully human antibody from phage library against SEMG2(497-509), VH SEQ ID NO:55, VL SEQ ID NO:58 (antibody, V domains shown, UNSURE (1)..(123) VH; UNSURE (1)..(108) VL) VH: QITLKESGPTLVKPTQTLTLTCNFSGFSLTTSGVGVAWIRQPPGKALEWLALIYWDDDQRYSPSLKSRLSVTKHTSKDQVVLTMTNVGPVDTATYYCAHLSYGPGWGYYMDVWGNGTMVTVSS VL: EIVLTQSPGTLSLSPGERASLSCRASQSVRNNYLAWYQQKPGQAPRLLIFGASNRATGIPDTFSGSGSGTDFTLTISRLEPEDFAVYYCQQYGHSPITFGQGTRLEIK; inhibited the binding
